Tested on: prostate cancer cell lines (e.g. DU145/TXR)
Experiment: Cell based assay, cell viability (CellTiter-Glo), prostate cancer cell lines
Conditions: Homo sapiens, PC-3 cells, 72 hours treatment, final concentration 0 to 2 μM, read-out: IC50, prostate cancer cell line PC-3
Record form. Attribute: IC50. Fill in for each entry.
Answers are plain numbers, in nM.

I have this compound here, CC(=O)c1c([S+]([O-])Cc2c(F)c(F)c(F)c(F)c2F)[nH]c2c(Br)ccc(Cl)c2c1=O (stereo not shown) , and I need its recorded IC50.
1530

Now let's try a different one.
I have this compound here, CC(=O)c1c([S+]([O-])Cc2ccc([S+]([O-])C(F)(F)F)cc2)[nH]c2c(Br)ccc(Cl)c2c1=O (stereo not shown) , and I need its recorded IC50.
1430
